# target-entity: UniProt P01116
# Sequence (P01116 1-188 isoform P01116-2): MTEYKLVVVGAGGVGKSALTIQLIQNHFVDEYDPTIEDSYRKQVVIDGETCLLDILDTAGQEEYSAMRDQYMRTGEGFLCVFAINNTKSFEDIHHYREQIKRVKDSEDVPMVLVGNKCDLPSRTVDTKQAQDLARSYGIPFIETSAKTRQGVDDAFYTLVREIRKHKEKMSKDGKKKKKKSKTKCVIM
# assay-remarks: Binding to KRAS by surface plasmon resonance (SPR), dissociation constant KD
# run-conditions: Single Cycle Kinetics, 1:1 binding model
Could you please report measured pKd for the items listed next?
// returns pKd (minus log10 of molar concentration), number only

Indicate the recorded pKd value for this molecule: `CCCOC[C@H]1C(=O)N[C@@H]([C@@H](C)CC)C(=O)N(C2CC2)CC(=O)N(C)[C@H]2C/C=C\CCN(C2=O)[C@@H](Cc2ccc(C(F)(F)F)cc2)C(=O)N(C)CC(=O)N[C@@H](CCc2ccc(C(F)(F)F)c(OC)c2)C(=O)N2C[C@H](OCC)C[C@H]2C(=O)N(C)C2(CCC2)C(=O)N(C)[C@@H](C2CCCC2)C(=O)N(C)[C@H](C(=O)N(C)C)CC(=O)N1C`
9.92

Output measured pKd for this item: `CCC[C@H]1C(=O)N[C@@H]([C@@H](C)CC)C(=O)N(C)CC(=O)N(C)[C@H]2C/C=C\CCN(C2=O)[C@@H](Cc2ccc(C(F)(F)F)cc2)C(=O)N(C)CC(=O)N[C@@H](CCc2ccc3sccc3c2)C(=O)N2C[C@H](OCC)C[C@H]2C(=O)NC2(CCC2)C(=O)N(C)[C@@H](C2CCCC2)C(=O)N(C)[C@H](C(=O)N(C)C)CC(=O)N1C`
9.44

Return pKd for the following molecule: `CC[C@H](C)[C@@H]1NC(=O)[C@H](CC(C)C)N(C)C(=O)C[C@@H](C(=O)N2C3CCC2COC3)N(C)C(=O)[C@H](C2CCCC2)N(C)C(=O)C2(CCCC2)NC(=O)[C@@H]2CCCN2C(=O)[C@H](CCc2cc(F)c(C(F)(F)F)c(F)c2)NC(=O)CN(C)C(=O)[C@H](Cc2ccc(C(F)(F)F)cc2)N2CCCCC[C@@H](C2=O)N(C)C(=O)CN(C)C1=O`
7.80

Supply pKd value. Item: `CCO[C@@H]1C[C@H]2C(=O)NC3(CCC3)C(=O)N(C)[C@@H](C3CCCC3)C(=O)N(C)[C@H](C(=O)N3CCOCC3)CC(=O)N(C)[C@@H](Cc3ccsc3)C(=O)N[C@@H]([C@@H](C)CC)C(=O)N(C)CC(=O)N(C)[C@H]3CCCCCN(C3=O)[C@@H](Cc3ccc(F)cc3)C(=O)N(C)CC(=O)N[C@@H](CCc3cc(F)c(C(F)(F)F)c(F)c3)C(=O)N2C1`
9.80

State its pKd for this molecule: `CCC[C@H]1C(=O)N[C@@H](C2CCCC2)C(=O)N(C)CC(=O)N(C)[C@H]2C/C=C\CCN(C2=O)[C@@H](Cc2ccc(C)cc2)C(=O)N(C)CC(=O)N[C@@H](CCc2ccc(C(F)(F)F)c(Cl)c2)C(=O)N2C[C@H](OCC)C[C@H]2C(=O)NC2(CC(C)(C)C2)C(=O)N(C)[C@@H](CC(C)C)C(=O)N(C)[C@H](C(=O)N(C)C)CC(=O)N1C`
9.04

Given `CCO[C@@H]1C[C@H]2C(=O)NC3(CCC3)C(=O)N(C)[C@@H](C3CCCC3)C(=O)N(C)[C@H](C(=O)N3CCCCC3)CC(=O)N(C)[C@@H](CC3CC3)C(=O)N[C@@H]([C@@H](C)CC)C(=O)N(C)CC(=O)N(C)[C@H]3C/C=C\CCN(C3=O)[C@@H](Cc3ccc(C(F)(F)F)cc3)C(=O)N(C)CC(=O)N[C@@H](CCc3cc(F)c(C(F)(F)F)c(F)c3)C(=O)N2C1` , respond with its pKd.
9.62

----------
I'd be grateful if you could share measured IC50 for these entries.
# Test system: human lung cancer strain NCI-H441
# Format: cell-based
Please respond with the number in µM and leave the unit unwritten.

Note down IC50 recorded for `CCO[C@@H]1C[C@H]2C(=O)NC3(CCC3)C(=O)N(C)[C@@H](C3CCCC3)C(=O)N(C)[C@H](C(=O)N(C)C)CC(=O)N(C)[C@H]3CCCCCc4ccc(cc4)C[C@@H](C(=O)N(C)CC(=O)N[C@@H](CCc4cc(F)c(C(F)(F)F)c(F)c4)C(=O)N2C1)N1CC/C=C\C[C@@H](C1=O)N(C)C(=O)CN(C)C(=O)[C@H]([C@@H](C)CC)NC3=O`
0.0166

Look up and state reported IC50 for `CC[C@H](C)[C@@H]1NC(=O)[C@H](CC2CC2)N(C)C(=O)C[C@@H](C(=O)N(C)CC)N(C)C(=O)[C@H](C2CCCC2)N(C)C(=O)C2(CC(C)(C)C2)NC(=O)[C@@H]2C[C@@H](C)CN2C(=O)[C@H](CCc2ccc(C(F)(F)F)c(OC)c2)NC(=O)CN(C)C(=O)[C@H](Cc2ccc(C)cc2)N2CC/C=C\C[C@@H](C2=O)N(C)C(=O)CN(C)C1=O`
0.0125

----------
For each entry below, report its IC50 value.
# System: human lung cancer strain NCI-H441
# Assay type: cell-based
Where a SMILES comes first, the peptide text is derived from it. Bridges are numbered along the chain shown (N, C = ends). [ ]: non-standard residue; d: D form. The star is where a group is joined. hPhe(3-Cl-4-CF3) = N[C@@H](CCc1ccc(C(F)(F)F)c(Cl)c1)C(=O)O; NPrPhe(4-CF3) = CCCN[C@@H](Cc1ccc(C(F)(F)F)cc1)C(=O)O; NMeGly(cPent) = CN[C@H](C(=O)O)C1CCCC1; NMeD = CN[C@@H](CC(=O)O)C(=O)O; NMeL = CN[C@@H](CC(C)C)C(=O)O; Morpholide = C1CN(*)CCO1; Ac5c = NC1(C(=O)O)CCCC1; Aze = O=C(O)[C@@H]1CCN1; NPrGly = CCCNCC(=O)O; Sar = CNCC(=O)O
Write down the value, and be sure its unit follows.

Please indicate IC50 recorded for CCO[C@@H]1C[C@H]2C(=O)NC3(CC(C)(C)C3)C(=O)N(C)[C@@H](C3CCCC3)C(=O)N(C)[C@H](C(=O)N(C)CC)CC(=O)N(C)[C@@H](CC)C(=O)N[C@@H]([C@@H](C)CC)C(=O)N(C)CC(=O)N(C)[C@H]3C/C=C\CCN(C3=O)[C@@H](Cc3ccc(C)cc3)C(=O)N(C)CC(=O)N[C@@H](CCc3ccc(C(F)(F)F)c(OC)c3)C(=O)N2C1 [PP1872]
12.4 nM

// fetch IC50 given entry CCCN1C(=O)CN(C)C(=O)CN(C)C(=O)[C@H]([C@@H](C)CC)NC(=O)[C@H](CC(C)C)N(C)C(=O)C[C@@H](C(=O)N(C)C)NC(=O)[C@H](C2CCCC2)N(C)C(=O)C2(CCCC2)NC(=O)[C@@H]2CCCN2C(=O)[C@H](CCc2ccc(C(F)(F)F)c(Cl)c2)NC(=O)CN(C)C(=O)[C@@H]1Cc1ccc(C(F)(F)F)cc1 [PP0355] ([NMeL]I[Sar][Sar][NPrPhe(4-CF3)][Sar][hPhe(3-Cl-4-CF3)]P[Ac5c][NMeGly(cPent)]D-NMe2; lactam N-11)
48.2 nM

Identify IC50 associated with the molecule CCCN1CC(=O)N2CC[C@H]2C(=O)N(CCC)[C@@H](Cc2ccc(C(F)(F)F)cc2)C(=O)N(C)CC(=O)N[C@@H](CCc2ccc(C(F)(F)F)c(Cl)c2)C(=O)N2CCC[C@H]2C(=O)NC2(CCCC2)C(=O)N(C)[C@@H](C2CCCC2)C(=O)N(C)[C@H](C(=O)N2CCOCC2)CC(=O)N(C)[C@@H](CC(C)C)C(=O)N[C@@H]([C@@H](C)CC)C1=O [PP0274] ([NMeL]I[NPrGly][Aze][NPrPhe(4-CF3)][Sar][hPhe(3-Cl-4-CF3)]P[Ac5c][NMeGly(cPent)][NMeD]-Morpholide; lactam N-11)
9.1 nM

Name the recorded IC50 of the item CCO[C@@H]1C[C@H]2C(=O)NC3(CCC3)C(=O)N(C)[C@@H](C3CCCC3)C(=O)N(C)[C@H](C(=O)N3CCOCC3)CC(=O)N(C)[C@@H](CC3CCCC3)C(=O)N[C@@H]([C@@H](C)CC)C(=O)N(C)CC(=O)N(C)[C@H]3CCCCN(C3=O)[C@@H](Cc3ccc(C(F)(F)F)cc3)C(=O)N(C)CC(=O)N[C@@H](CCc3cc(F)c(C(F)(F)F)c(F)c3)C(=O)N2C1 [PP0715] in your answer.
4.5 nM

# return recorded IC50 for entry CC[C@H](C)[C@@H]1NC(=O)[C@H](CC(F)F)N(C)C(=O)C[C@@H](C(=O)N(C)C)N(C)C(=O)[C@H](C2CCCC2)N(C)C(=O)C2(CC(C)(C)C2)NC(=O)[C@@H]2C[C@H](C)CN2C(=O)[C@H](CCc2ccc(C(F)(F)F)c(OC)c2)NC(=O)CN(C)C(=O)[C@H](Cc2ccc(C)cc2)N2CC/C=C\C[C@@H](C2=O)N(C)C(=O)CN(C)C1=O [PP1875]
7.7 nM
